- target or system: NPC intracellular cholesterol transporter 1 [I1061T] (Homo sapiens, UniProt O15118, I1061T)
- Sequence (O15118 23-1278 I1061T limits assumed): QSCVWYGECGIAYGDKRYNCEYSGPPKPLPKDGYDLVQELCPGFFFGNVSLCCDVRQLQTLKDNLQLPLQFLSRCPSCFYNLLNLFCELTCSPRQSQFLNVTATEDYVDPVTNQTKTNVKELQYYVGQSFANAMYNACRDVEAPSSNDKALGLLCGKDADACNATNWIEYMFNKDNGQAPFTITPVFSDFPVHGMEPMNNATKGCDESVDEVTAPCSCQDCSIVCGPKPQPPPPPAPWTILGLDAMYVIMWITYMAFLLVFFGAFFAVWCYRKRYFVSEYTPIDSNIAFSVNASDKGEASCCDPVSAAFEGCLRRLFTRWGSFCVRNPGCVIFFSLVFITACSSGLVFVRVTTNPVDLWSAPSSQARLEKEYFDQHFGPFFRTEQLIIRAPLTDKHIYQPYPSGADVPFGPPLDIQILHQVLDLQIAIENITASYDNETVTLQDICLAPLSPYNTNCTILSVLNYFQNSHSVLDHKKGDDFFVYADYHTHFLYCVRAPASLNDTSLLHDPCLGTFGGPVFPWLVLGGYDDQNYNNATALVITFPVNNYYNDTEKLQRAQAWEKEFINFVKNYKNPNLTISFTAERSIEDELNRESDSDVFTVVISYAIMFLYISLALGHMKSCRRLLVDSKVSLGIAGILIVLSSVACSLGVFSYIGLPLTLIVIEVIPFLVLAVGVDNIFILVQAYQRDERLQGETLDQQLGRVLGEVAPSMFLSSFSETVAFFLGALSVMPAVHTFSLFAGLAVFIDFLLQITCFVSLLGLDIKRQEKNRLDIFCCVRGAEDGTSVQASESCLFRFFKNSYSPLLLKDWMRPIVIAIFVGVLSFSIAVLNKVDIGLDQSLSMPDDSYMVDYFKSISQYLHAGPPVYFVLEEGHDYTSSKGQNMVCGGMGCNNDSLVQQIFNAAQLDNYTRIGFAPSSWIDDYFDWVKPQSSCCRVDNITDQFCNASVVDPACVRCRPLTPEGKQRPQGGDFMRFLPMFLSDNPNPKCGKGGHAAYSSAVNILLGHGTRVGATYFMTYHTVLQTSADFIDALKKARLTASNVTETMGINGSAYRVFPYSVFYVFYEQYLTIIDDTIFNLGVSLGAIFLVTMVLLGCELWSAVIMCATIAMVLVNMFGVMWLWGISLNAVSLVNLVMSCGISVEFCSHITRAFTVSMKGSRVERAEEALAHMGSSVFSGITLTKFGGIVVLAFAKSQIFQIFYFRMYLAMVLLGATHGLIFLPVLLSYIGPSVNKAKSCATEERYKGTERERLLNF
- protocol description: Binding affinity to FLAG/tGFP-tagged NPC1 I1061T mutant (unknown origin) expressed in HEK293 cells assessed as localization after 24 hrs by fluorescence microscopy
Criterion: EC50 strictly less than 2000 nM. Met: yes. Not met: no.

{"molecule": "CC(C)CCC[C@@H](C)[C@H]1CC[C@H]2[C@@H]3C[C@@H](O)[C@@]4(O)C[C@@H](OCC(=O)N5CCOCC5)CC[C@]4(C)[C@H]3CC[C@]12C", "label class": "yes"}
{"molecule": "CCN(CC)CCO[C@H]1CC[C@@]2(C)C(=CC[C@H]3[C@@H]4CC[C@H]([C@H](C)CCCC(C)(C)O)[C@@]4(C)CC[C@@H]32)C1", "label class": "no"}
{"molecule": "CC(C)CCC[C@@H](C)[C@H]1CC[C@H]2[C@@H]3C(=O)C=C4C[C@@H](OCC(=O)N5CCOCC5)CC[C@]4(C)[C@H]3CC[C@]12C", "label class": "yes"}

Given the entry CC(C)CCC[C@@H](C)[C@H]1CC[C@H]2[C@@H]3CC[C@@]4(O)[C@@H](O)[C@@H](O)CC[C@]4(C)[C@H]3CC[C@]12C , would its reported EC50 be below 2000 nM? no

Given the entry CC(C)CCC[C@@H](C)[C@H]1CC[C@H]2[C@@H]3CC(=O)[C@H]4C[C@@H](O)CC[C@]4(C)[C@H]3CC[C@]12C , would its reported EC50 be below 2000 nM? no

Given the entry CC(C)CCC[C@@H](C)[C@H]1CC[C@H]2[C@@H]3[C@@H](O)C=C4C[C@@H](OCC(=O)N5CCOCC5)CC[C@]4(C)[C@H]3CC[C@]12C , would its reported EC50 be below 2000 nM? yes

Given the entry C[C@H](COc1cc(C(F)(F)F)cc(C(F)(F)F)c1)[C@H]1CC[C@H]2[C@@H]3C[C@@H](O)[C@@]4(O)C[C@@H](OCC(=O)N5CCOCC5)CC[C@]4(C)[C@H]3CC[C@]12C , would its reported EC50 be below 2000 nM? no

Given the entry CC(C)CCC[C@@H](C)[C@H]1CC[C@H]2[C@@H]3CC(=O)[C@@]4(O)C[C@@H](O)CC[C@]4(C)[C@H]3CC[C@]12C , would its reported EC50 be below 2000 nM? yes

Given the entry CC(C)CCC[C@@H](C)[C@H]1CC[C@H]2[C@@H]3C[C@@H](O)[C@@]4(O)C[C@@H](OCCN5CCOCC5)CC[C@]4(C)[C@H]3CC[C@]12C , would its reported EC50 be below 2000 nM? yes

Given the entry C[C@H](CCCC(C)(C)O)[C@H]1CC[C@H]2[C@@H]3CC=C4C[C@@H](O)CC[C@]4(C)[C@H]3CC[C@]12C , would its reported EC50 be below 2000 nM? no

Given the entry C[C@H](CCCC(C)(C)O)[C@H]1CC[C@H]2[C@@H]3C[C@@H](O)[C@@]4(O)C[C@@H](O)CC[C@]4(C)[C@H]3CC[C@]12C , would its reported EC50 be below 2000 nM? yes

Given the entry C[C@H](CCCC(C)(C)O)[C@H]1CC[C@H]2[C@@H]3CC=C4C[C@@H](OCC(=O)N(C)C)CC[C@]4(C)[C@H]3CC[C@]12C , would its reported EC50 be below 2000 nM? yes

====

- target or system: NPC intracellular cholesterol transporter 1 [I1061T] (Homo sapiens, UniProt O15118, I1061T)
- protocol description: Binding affinity to FLAG/tGFP-tagged NPC1 I1061T mutant (unknown origin) expressed in HEK293 cells assessed as localization after 24 hrs by fluorescence microscopy
quantity measured: EC50 (µM)
Use µM as the unit, but write only the number.

Below: 3 molecules and their reported EC50.
{"molecule": "CCN(CC)C(=O)CC[C@@H](C)[C@H]1CC[C@H]2[C@@H]3CC=C4C[C@@H](O)CC[C@]4(C)[C@H]3CC[C@]12C", "units label": "µM", "val": 1.7}
{"molecule": "CCN(CC)C(=O)CO[C@H]1CC[C@@]2(C)C(=CC[C@H]3[C@@H]4CC[C@H]([C@H](C)CCCC(C)(C)O)[C@@]4(C)CC[C@@H]32)C1", "units label": "µM", "val": 4.8}
{"molecule": "CC[C@H](/C=C/[C@@H](C)[C@H]1CC[C@H]2[C@@H]3C[C@@H](O)[C@@]4(O)C[C@@H](OCC(=O)N5CCOCC5)CC[C@]4(C)[C@H]3CC[C@]12C)C(C)C", "units label": "µM", "val": 0.36}

# input for lookup
Which EC50 reading was recorded for the molecule C[C@H](CNC(=O)c1cc(C(F)(F)F)cc(C(F)(F)F)c1)[C@H]1CC[C@H]2[C@@H]3C[C@@H](O)[C@@]4(O)C[C@@H](OCC(=O)N5CCOCC5)CC[C@]4(C)[C@H]3CC[C@]12C ? 0.086

====

- target or system: NPC intracellular cholesterol transporter 1 [I1061T] (Homo sapiens, UniProt O15118, I1061T)
- protocol description: Binding affinity to FLAG/tGFP-tagged NPC1 I1061T mutant (unknown origin) expressed in HEK293 cells assessed as localization after 24 hrs by fluorescence microscopy
quantity measured: EC50
The answer consists of two parts: a number and, after it, its unit.

Below: 4 compounds and their reported EC50.
{"molecule": "CC(C)CCC[C@@H](C)[C@H]1CC[C@H]2[C@@H]3[C@@H](O)C=C4C[C@@H](O)CC[C@]4(C)[C@H]3CC[C@]12C", "EC50": "3.4 µM"}
{"molecule": "CC(C)CC[C@H](O)[C@@H](C)[C@H]1CC[C@H]2[C@@H]3CC=C4C[C@@H](O)CC[C@]4(C)[C@H]3CC[C@]12C", "EC50": "2.9 µM"}
{"molecule": "CC(C)CCC[C@@H](C)[C@H]1CC[C@H]2[C@@H]3C[C@@H](O)[C@@]4(O)C[C@@H](OCC(=O)N(CCO)CCO)CC[C@]4(C)[C@H]3CC[C@]12C", "EC50": "0.56 µM"}
{"molecule": "CC(C)C(=O)NC[C@@H](C)[C@H]1CC[C@H]2[C@@H]3C[C@@H](O)[C@@]4(O)C[C@@H](OCC(=O)N5CCOCC5)CC[C@]4(C)[C@H]3CC[C@]12C", "EC50": "0.37 µM"}

Which EC50 reading was recorded for the compound CC(C)CCC[C@@H](C)[C@H]1CC[C@H]2[C@@H]3C[C@@H](O)[C@@]4(O)C[C@@H](O)CC[C@]4(C)[C@H]3CC[C@]12C ? 1.7 µM

Which EC50 reading was recorded for the compound C[C@H](CCCC(C)(C)O)[C@H]1CC[C@H]2[C@@H]3CCC4=CC(=O)CC[C@]4(C)[C@H]3CC[C@]12C ? 4 µM

Which EC50 reading was recorded for the compound CC(C)CCC[C@@H](C)[C@H]1CC[C@H]2[C@@H]3[C@@H](O)C=C4C[C@@H](OCCO)CC[C@]4(C)[C@H]3CC[C@]12C ? 3.4 µM

Which EC50 reading was recorded for the compound CC(C)CCC[C@@H](C)[C@H]1CC[C@H]2[C@@H]3C[C@@H](O)[C@@]4(O)C[C@@H](OCC(=O)N5CCCCC5)CC[C@]4(C)[C@H]3CC[C@]12C ? 1.8 µM

====

- target or system: NPC intracellular cholesterol transporter 1 [I1061T] (Homo sapiens, UniProt O15118, I1061T)
- protocol description: Binding affinity to FLAG/tGFP-tagged NPC1 I1061T mutant (unknown origin) expressed in HEK293 cells assessed as localization after 24 hrs by fluorescence microscopy
Criterion: EC50 strictly less than 6 µM. Met: label 1. Not met: label 0.

{"molecule": "C[C@]12CC[C@H](O)CC1=CC[C@@H]1[C@@H]2CC[C@]2(C)C(=O)CC[C@@H]12", "label class": "label 0"}
{"molecule": "C[C@H](CCCC(C)(C)O)[C@H]1CC[C@H]2[C@@H]3CC=C4C[C@@H](OCC(=O)N5CCOCC5)CC[C@]4(C)[C@H]3CC[C@]12C", "label class": "label 1"}
{"molecule": "C[C@H](CNC(=O)N(C)C)[C@H]1CC[C@H]2[C@@H]3C[C@@H](O)[C@@]4(O)C[C@@H](OCC(=O)N5CCOCC5)CC[C@]4(C)[C@H]3CC[C@]12C", "label class": "label 0"}
{"molecule": "C[C@H](CCC(=O)N(C)C)[C@H]1CC[C@H]2[C@@H]3CC=C4C[C@@H](O)CC[C@]4(C)[C@H]3CC[C@]12C", "label class": "label 1"}
{"molecule": "CC(C)CCC[C@@H](C)[C@H]1CC[C@H]2[C@@H]3C[C@@H](O)[C@@]4(O)C[C@@H](OCC(N)=O)CC[C@]4(C)[C@H]3CC[C@]12C", "label class": "label 1"}
{"molecule": "CC(C)CCC[C@@H](C)[C@H]1CC[C@H]2[C@@H]3C(=O)C=C4C[C@@H](O)CC[C@]4(C)[C@H]3CC[C@]12C", "label class": "label 0"}
{"molecule": "C[C@H](CCCC(C)(C)O)[C@H]1CC[C@H]2[C@@H]3[C@@H](O)C=C4C[C@@H](O)CC[C@]4(C)[C@H]3CC[C@]12C", "label class": "label 1"}

Given the entry C[C@H](CCCC(C)(C)O)[C@H]1CC[C@H]2[C@@H]3C(=O)C=C4C[C@@H](O)CC[C@]4(C)[C@H]3CC[C@]12C , would its reported EC50 be below 6 µM? label 1

FYI, the data here is from BindingDB's records for doi:10.1016/j.bmcl.2014.05.064.
